Source: patent US10093628B2

- Test Target: UniProtKB P37231
- Sequence (P37231 238-503 limits assumed): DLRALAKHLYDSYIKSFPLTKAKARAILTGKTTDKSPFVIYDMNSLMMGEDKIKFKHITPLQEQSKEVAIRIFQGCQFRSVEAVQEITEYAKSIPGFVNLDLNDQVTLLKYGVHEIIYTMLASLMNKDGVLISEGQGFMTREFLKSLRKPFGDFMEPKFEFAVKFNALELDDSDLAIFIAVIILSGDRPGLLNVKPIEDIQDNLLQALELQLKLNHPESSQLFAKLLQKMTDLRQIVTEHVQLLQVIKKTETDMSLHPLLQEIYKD
- Protocol Text: PPARγ-dependent transactivation assay in HEK293T cells
Endpoint: IC50
Remember to put the unit after the number in your answer.

Lookup result for CCCC/C(=C\c1cc(OCc2ccc3nc(C(F)(F)F)cc(OC)c3c2)ccc1OCc1ccc(C(F)(F)F)cc1)C(=O)O [MTTB] ; measured IC50: 4.3 µM
